tested-system: UniProtKB Q06187
experiment-notes: Degradation of BTK protein in Namalwa cells (Western blot; DC50, Dmax)
condition-info: BTK degradation; cell line not given
outcome-measure: DC50

Known results for molecules:
NC(=O)c1c(-c2ccc(Oc3ccccc3)cc2)nn2c1NCC[C@H]2C1CCN(C2CCN(CCC3CCN(c4ccc5c(c4)CN(C4CCC(=O)NC4=O)C5=O)CC3)CC2)CC1 (stereo partly drawn) [Compound 326] | 10 to 50 nM
NC(=O)c1c(-c2ccc(Oc3ccccc3)cc2)nn2c1NCC[C@H]2C1CCN(C2CCN(CCN3CCN(c4ccc5c(c4)C(=O)N(C4CCC(=O)NC4=O)C5=O)CC3)CC2)CC1 (stereo partly drawn) [Compound 323] | 10 to 50 nM

// next item, DC50 requested
Indicate its recorded DC50; the molecule in question is NC(=O)c1c(-c2ccc(Oc3ccccc3)cc2)nn2c1NCCC2C1CCN(C(=O)N2CCN(CCN3CCN(c4ccc5c(c4)CN(C4CCC(=O)NC4=O)C5=O)CC3)CC2)CC1 (stereo not drawn) [Compound 282] 10 to 50 nM

---

tested-system: BTK (Homo sapiens)
experiment-notes: Degradation of BTK protein in Namalwa cells (Western blot; DC50, Dmax)
condition-info: read-out: Dmax (BTK degradation)
outcome-measure: Dmax

Known results for molecules:
Nc1ncnc2c1c(-c1ccc(Oc3ccccc3)cc1)nn2C1CCN(CCN2CCC(CN3CCC(c4ccc(N5CCC(=O)NC5=O)cc4)CC3)C2)CC1 (centres unmarked) | > 75%
Nc1ncnc2c1c(-c1ccc(Oc3ccccc3)cc1)nn2[C@@H]1CCCN(CCNC(=O)C2CCN(c3ccc4c(c3)C(=O)N(C3CCC(=O)NC3=O)C4=O)CC2)C1 (some centres unmarked) | > 75%
Nc1ncnc2c1c(-c1ccc(Oc3ccccc3)cc1)nn2C1CCN(CCN2CCC(N3CCN(c4ccc5c(c4)C(=O)N(C4CCC(=O)NC4=O)C5=O)CC3)C2)CC1 (single isomer, unassigned) [Compound 459a] | > 90%
Nc1ncnc2c1c(-c1ccc(Oc3ccccc3)cc1)nn2C1CCN(C(=O)N2CC(N3CCN(c4ccc5c(c4)C(=O)N(C4CCC(=O)NC4=O)C5=O)CC3)C2)CC1 (centres unmarked) | > 90%

// next item, Dmax requested
Look up and report measured Dmax (BTK (Homo sapiens)) for the following molecule: Nc1ncnc2c1c(-c1ccc(Oc3ccccc3)cc1)nn2C1CCN(C(=O)C2CC(N3CCN(c4ccc5c(c4)C(=O)N(C4CCC(=O)NC4=O)C5=O)CC3)C2)CC1 (centres unmarked) > 90%

---

tested-system: BTK (Homo sapiens, UniProt Q06187)
Sequence (Q06187 whole entry): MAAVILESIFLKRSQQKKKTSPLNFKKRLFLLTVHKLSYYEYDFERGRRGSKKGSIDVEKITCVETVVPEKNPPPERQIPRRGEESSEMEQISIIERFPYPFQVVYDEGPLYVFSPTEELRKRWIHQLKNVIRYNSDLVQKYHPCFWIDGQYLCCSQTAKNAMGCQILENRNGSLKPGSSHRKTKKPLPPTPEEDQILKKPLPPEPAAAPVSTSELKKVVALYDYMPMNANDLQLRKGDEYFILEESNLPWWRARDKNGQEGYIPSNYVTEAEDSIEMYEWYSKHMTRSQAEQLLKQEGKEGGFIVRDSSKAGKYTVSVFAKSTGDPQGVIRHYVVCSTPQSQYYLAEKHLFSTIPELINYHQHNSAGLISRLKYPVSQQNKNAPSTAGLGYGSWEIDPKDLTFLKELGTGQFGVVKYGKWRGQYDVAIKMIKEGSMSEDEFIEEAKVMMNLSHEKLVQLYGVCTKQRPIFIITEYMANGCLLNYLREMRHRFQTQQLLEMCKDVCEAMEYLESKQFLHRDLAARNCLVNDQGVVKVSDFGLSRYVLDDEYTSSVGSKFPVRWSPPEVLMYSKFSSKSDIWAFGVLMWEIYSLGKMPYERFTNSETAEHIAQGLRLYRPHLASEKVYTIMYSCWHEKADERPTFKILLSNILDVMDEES
experiment-notes: Degradation of BTK protein in Namalwa cells (Western blot; DC50, Dmax)
condition-info: read-out: DC50 (BTK degradation); concentration giving 50% reduction of BTK expression level; cell line not given
outcome-measure: DC50

Nc1ncnc2c1c(-c1ccc(Oc3ccccc3)cc1)nn2C1CCN(CC2CN(C[C@H]3CCN(c4ccc5c(c4)C(=O)N(C4CCC(=O)NC4=O)C5=O)C3)C2)CC1 (some centres unmarked) [Compound 443a] | < 10 nM

Indicate its recorded DC50; the compound in question is Nc1ncnc2c1c(-c1ccc(Oc3ccccc3)cc1)nn2C1CCN(CC2CCN(/C=C\C(=O)CN3CCN(c4ccc5c(c4)CN(C4CCC(=O)NC4=O)C5=O)CC3)CC2)CC1 (centres unmarked) < 10 nM

Indicate its recorded DC50; the compound in question is `Nc1ncnc2c1c(-c1ccc(Oc3ccccc3)cc1)nn2C1CCN(CCC#Cc2ccc(N3CCC(=O)NC3=O)cc2)CC1` > 50 nM

Indicate its recorded DC50; the compound in question is Nc1ncnc2c1c(-c1ccc(Oc3ccccc3)cc1)nn2C1CCN(CCCN2CCC(CN3CCC(c4ccc5c(c4)oc(=O)n5C4CCC(=O)NC4=O)CC3)CC2)CC1 (centres unmarked) < 10 nM

Indicate its recorded DC50; the compound in question is `Nc1ncnc2c1c(-c1ccc(Oc3ccccc3)cc1)nn2C1CCN(C2CCN(CCN3CCN(c4ccc(N5CCC(=O)NC5=O)cc4)CC3)CC2)CC1` 10 to 50 nM
